These measurements were taken from patent US6706880B2.

Molecular target: dopamine transporter (UniProt P23977)
Type: binding
Conditions: read-out: IC50 DA [3H]-WIN 35,428; Table II
Structures can show the parent of a compound that is named as a salt.
Lab note: anything with IC50 below 20 nM is marked 1.0; values at 20 nM or higher are marked 0.0.

A record lists CN1[C@H]2CC[C@@H]1[C@@H](c1nc3ccccc3s1)[C@@H](c1ccc(Cl)cc1)C2 [RTI-4229-202, Hydrochloride] . Is its IC50 below 20 nM? 1.0

A record lists Cc1ccc([C@H]2C[C@@H]3CC[C@H]([C@H]2c2nnc(C)o2)N3C)cc1 [RTI-4229-194, Hydrochloride] . Is its IC50 below 20 nM? 1.0

A record lists Cc1cc([C@H]2[C@@H](c3ccc(I)cc3)C[C@@H]3CC[C@H]2N3C)on1 [RTI-4229-180, Hydrochloride] . Is its IC50 below 20 nM? 1.0

A record lists CN1C2CCC1C(c1nnc(-c3ccccc3)s1)C(c1ccc(Cl)cc1)C2 (stereo not drawn) [RTI-4229-200, Hydrochloride] . Is its IC50 below 20 nM? 1.0

A record lists Cc1ccc([C@H]2C[C@@H]3CC[C@H]([C@H]2c2nnc(-c4ccccc4)s2)N3C)cc1 [RTI-4229-199, Hydrochloride] . Is its IC50 below 20 nM? 0.0

***
A record lists Cc1ccc([C@H]2C[C@@H]3CC[C@H]([C@H]2c2nnc(-c4ccccc4)o2)N3C)cc1 [RTI-4229-195, Hydrochloride] . Is its IC50 below 20 nM? 0.0

A record lists Cc1cc([C@H]2[C@@H](c3ccc(Cl)cc3)C[C@@H]3CC[C@H]2N3C)on1 [RTI-165, Hydrochloride] . Is its IC50 below 20 nM? 1.0

A record lists CN1[C@H]2CC[C@@H]1[C@@H](c1cc(-c3ccccc3)no1)[C@@H](c1ccc(Cl)cc1)C2 [RTI-4229-177, Hydrochloride] . Is its IC50 below 20 nM? 1.0

A record lists Cc1ccc([C@H]2C[C@@H]3CC[C@H]([C@H]2c2cc(-c4ccccc4)no2)N3C)cc1 [RTI-4229-176, Hydrochloride] . Is its IC50 below 20 nM? 1.0

A record lists Cc1ccc([C@H]2C[C@@H]3CC[C@H]([C@H]2c2ncc(-c4ccccc4)o2)N3C)cc1 [RTI-4229-178, Tartrate] . Is its IC50 below 20 nM? 0.0

A record lists Cc1ccc(C2CC3CCC(C2c2cc(C)no2)N3C)cc1.Cl (stereo not drawn) [RTI-4229-171, Hydrochloride] . Is its IC50 below 20 nM? 1.0

A record lists CN1[C@H]2CC[C@@H]1[C@@H](c1cc(-c3ccccc3)no1)[C@@H](c1ccc(I)cc1)C2 [RTI-4229-181, Hydrochloride] . Is its IC50 below 20 nM? 1.0

A record lists Cc1ccc([C@H]2C[C@@H]3CC[C@H]([C@H]2c2nn[nH]n2)N3C)cc1 [RTI-157, Hydrochloride] . Is its IC50 below 20 nM? 0.0

A record lists CN1[C@H]2CC[C@@H]1[C@@H](c1nnc(-c3ccccc3)o1)[C@@H](c1ccc(Cl)cc1)C2 [RTI-4229-188, Hydrochloride] . Is its IC50 below 20 nM? 1.0
